Overview of recorded T/C for various molecules
- Tested on: L1210 leukemia ip in BDF1 mice, survival T/C
- test summary: NCI In Vivo Anticancer Drug Screen. Data for tumor model L1210 Leukemia (intraperitoneal) in B6D2F1 (BDF1) mice
- condition set: endpoint: mean survival time; dose: 400.0 mg/kg/injection; schedule: Q01DX009 (ip); vehicle: Klucel (hydroxypropylcellulose) (HPC); higher = longer survival
- Procedure: The antitumor activity of compounds was measured in mice bearing transplantable tumors. Survival or tumor size were measured and the results are expressed as the measurement made in the treated group (T) divided by the measurement made in the vehicle treated control group (C). The tumor model used in this assay is L1210 Leukemia (intraperitoneal) in B6D2F1 (BDF1) mice
Toxic doses and inconclusive results are not listed.

molecule: COc1ccc(C(=O)/C=C/c2ccc3c(c2)OCO3)cc1OC
T/C: 90 % of control
--
molecule: O=C(Nc1ccc([N+](=O)[O-])cc1Cl)Oc1cccc2ccccc12
T/C: 102 % of control
--
molecule: Cc1ccc(S(=O)(=O)N2CC3CC2CN3Cc2ccccc2)cc1 (stereo not given)
T/C: 92 % of control
--
molecule: Cn1nc(N)c2cc(C#N)c(N)nc21
T/C: 95 % of control
--
molecule: Cc1ccc(S(=O)(=O)N(CCCc2c(Cc3ccccc3)nc(N)[nH]c2=O)c2ccccc2)cc1
T/C: 100 % of control
--
molecule: CC1OCOC2COCOC2C1O (stereo not given)
T/C: 97 % of control
--
molecule: CC(=O)c1ccc(OC(=O)Nc2ccc(C)cc2)cc1
T/C: 88 % of control
--
molecule: CNC(=O)Nc1nc2ccccc2s1
T/C: 93 % of control
--
molecule: Clc1ccc2nc(-c3ccc(Cl)c(Cl)c3)cc(-c3ccccc3)c2c1
T/C: 97 % of control
--
molecule: Cc1ccc(OCCOc2ccc(NC(=O)CC(=O)c3cccc([N+](=O)[O-])c3)cc2)cc1
T/C: 97 % of control

----------
- System: L1210 leukemia ip in BDF1 mice, survival T/C
- test summary: NCI In Vivo Anticancer Drug Screen. Data for tumor model L1210 Leukemia (intraperitoneal) in B6D2F1 (BDF1) mice
- condition set: endpoint: mean survival time; dose: 100.0 mg/kg/injection; schedule: Q01DX001 (ip); vehicle: Klucel (hydroxypropylcellulose) (HPC); higher = longer survival
Inconclusive results and toxic doses are left out.

compound: CC1(O)C(=O)C=Cc2ccccc21 (stereo not drawn)
T/C: 93 % of control
--
compound: O=C1OCC(CN2CC3CCC(CC3)C2)=C1c1ccccc1
T/C: 94 % of control
--
compound: CCOC(=O)c1c[nH]c2nc(SC)[nH]c(=O)c2c1=O
T/C: 102 % of control
--
compound: O=c1c2ccccc2ccc2ccccc12
T/C: 103 % of control
--
compound: COC(=O)NS(=O)(=O)c1cccn1C
T/C: 106 % of control
--
compound: O=C(OC1CC=CCC1)c1ccc([N+](=O)[O-])cc1 (stereo not drawn)
T/C: 86 % of control
--
compound: CS(=O)Cc1cccc2ccccc12 (stereo not drawn)
T/C: 98 % of control
--
compound: O=C1C(Cl)=C(Cl)C2(Cl)C1(Cl)C1(Cl)C(=O)C(Cl)=C(Cl)C12Cl (stereo not drawn)
T/C: 99 % of control

----------
- Test system: L1210 leukemia ip in BDF1 mice, survival T/C
- test summary: NCI In Vivo Anticancer Drug Screen. Data for tumor model L1210 Leukemia (intraperitoneal) in B6D2F1 (BDF1) mice
- condition set: endpoint: mean survival time; dose: 200.0 mg/kg/injection; schedule: Q01DX009 (ip); vehicle: saline with Tween-80; higher = longer survival
Toxic doses and inconclusive results are not listed.

molecule: CC(=O)N(C(C)=O)c1ccc(N=Nc2ccccc2C)cc1C
assay target: L1210 leukemia ip in BDF1 mice, survival T/C
T/C: 106 % of control
--
molecule: CC(=O)n1cc(C2CC(=O)OC3=C2C(=O)CCC3)c2ccccc21 (centres undefined)
assay target: L1210 leukemia ip in BDF1 mice, survival T/C
T/C: 93 % of control
--
molecule: C=Cc1ccc(N)cc1
assay target: L1210 leukemia ip in BDF1 mice, survival T/C
T/C: 93 % of control
--
molecule: CCOC(=O)CCC(NC(=O)CCCCSc1ncnc2nc[nH]c12)C(=O)OCC (centres undefined)
assay target: L1210 leukemia ip in BDF1 mice, survival T/C
T/C: 111 % of control
--
molecule: CCOC(=O)OCCCN(C)C
assay target: L1210 leukemia ip in BDF1 mice, survival T/C
T/C: 94 % of control
--
molecule: CSc1ccc(Sc2cccc3c2C(=O)c2c(cccc2Sc2ccc(SC)cc2)C3)cc1
assay target: L1210 leukemia ip in BDF1 mice, survival T/C
T/C: 92 % of control
--
molecule: Cn1c(=O)n2n(c1=O)C1C=CC2C2C(Br)C(Br)C21 (centres undefined)
assay target: L1210 leukemia ip in BDF1 mice, survival T/C
T/C: 101 % of control
--
molecule: CC(=O)N1C(=O)N(Cl)C(=O)C1(C)c1cccs1 (centres undefined)
assay target: L1210 leukemia ip in BDF1 mice, survival T/C
T/C: 101 % of control
--
molecule: C=CN1C(=O)NC(C)(CC(C)C)C1=O (centres undefined)
assay target: L1210 leukemia ip in BDF1 mice, survival T/C
T/C: 91 % of control
--
molecule: O=[N+]([O-])c1ccc(N/N=C2\C3CC(c4ccccc4)C2C(c2ccccc2)=C3c2ccccc2)c([N+](=O)[O-])c1 (centres undefined)
assay target: L1210 leukemia ip in BDF1 mice, survival T/C
T/C: 89 % of control
--
molecule: COc1ccc(C(=O)CC(C#N)c2ccc3c(c2)OCO3)cc1OC (centres undefined)
assay target: L1210 leukemia ip in BDF1 mice, survival T/C
T/C: 94 % of control
--
molecule: CC(C)=C(c1ccc(C(C)(C)C)cc1)c1ccc(C(C)(C)C)cc1
assay target: L1210 leukemia ip in BDF1 mice, survival T/C
T/C: 95 % of control
--
molecule: COCC(=O)C(C(C)=O)C(c1ccncc1)C(C(C)=O)C(=O)COC (centres undefined)
assay target: L1210 leukemia ip in BDF1 mice, survival T/C
T/C: 97 % of control
--
molecule: CCOC(=O)CNC(=O)Oc1cccc2cccnc12
assay target: L1210 leukemia ip in BDF1 mice, survival T/C
T/C: 101 % of control
--
molecule: N#CCCC1CCCCC1=O (centres undefined)
assay target: L1210 leukemia ip in BDF1 mice, survival T/C
T/C: 96 % of control
--
molecule: OCCc1ccccc1
assay target: L1210 leukemia ip in BDF1 mice, survival T/C
T/C: 100 % of control
--
molecule: CCCCc1ccc(N=Cc2ccc(C=Nc3ccc(CCCC)cc3)cc2)cc1
assay target: L1210 leukemia ip in BDF1 mice, survival T/C
T/C: 97 % of control
--
molecule: CCCNC(=O)Nc1cccc(C(F)(F)F)c1
assay target: L1210 leukemia ip in BDF1 mice, survival T/C
T/C: 97 % of control
--
molecule: O=C(/C=C/C=C/c1ccccc1)c1ccc(Cl)cc1
assay target: L1210 leukemia ip in BDF1 mice, survival T/C
T/C: 92 % of control
